Test system: A431
Test: Inhibition of Cancer Cell Growth (Sulforhodamine B)
Type: cell-based, Human
Details: Homo sapiens, A-431, 48 hours exposure, read-out: Inhibition of Cancer Cell Growth as Measured by Cell Number (IC50) A431
MEASUREMENT LABEL: log10 of IC50 (log10 of the value in µg/mL)

MOLECULE	MEASUREMENT LABEL	EXPERIMENTAL VALUE
COC(=O)/C=C/CNc1ccc2ncnc(Nc3cccc(Br)c3)c2c1 [Example 60]	log10 of IC50	-0.46
CC(C)(C)[Si](C)(C)OCC#CC(=O)Nc1ccc2ncnc(Nc3cccc(Br)c3)c2c1 [Example 15]	log10 of IC50	-1.40
COCCOCC#CC(=O)Nc1ccc2ncnc(Nc3cccc(Br)c3)c2c1 [Example 55]	log10 of IC50	-0.40
COCOCC#CC(=O)Nc1ccc2ncnc(Nc3cccc(Br)c3)c2c1 [Example 57]	log10 of IC50	0.45
O=C(Nc1ccc2ncnc(Nc3cccc(Br)c3)c2c1)C1CO1 (stereo not drawn) [Example 81]	log10 of IC50	-0.47
CCOc1c(Nc2ccc3ncnc(Nc4cccc(Br)c4)c3c2)c(=O)c1=O [Example 48]	log10 of IC50	0.49
C=CS(=O)(=O)Nc1ccc2ncnc(Nc3cccc(Br)c3)c2c1 [Example 82]	log10 of IC50	-1.60
O=C(C#CCCl)Nc1ccc2ncnc(Nc3cccc(Br)c3)c2c1 [Example 12]	log10 of IC50	-1.52
O=c1c(Nc2ccc3ncnc(Nc4cccc(Br)c4)c3c2)c(N2CCOCC2)c1=O [Example 52]	log10 of IC50	0.93
C=C(CNc1ccc2ncnc(Nc3cccc(Br)c3)c2c1)C(=O)OC [Example 59]	log10 of IC50	-0.50
O=C(/C=C/Cl)Nc1ccc2ncnc(Nc3cccc(Br)c3)c2c1 [Example 47]	log10 of IC50	-1.64
CC#CC(=O)Nc1ccc2ncnc(Nc3cccc(N(C)C)c3)c2c1 [Example 61]	log10 of IC50	-0.14
O=C(C=CCBr)Nc1ccc2ncnc(Nc3cccc(Br)c3)c2c1 [Example 65]	log10 of IC50	0.51
CCN(CC)CC#CC(=O)Nc1ccc2ncnc(Nc3cccc(Br)c3)c2c1 [Example 25]	log10 of IC50	-1.22

---

pIC50: −log10 of the molar value.
For reference, pIC50 measured on epidermal growth factor receptor kinase (Homo sapiens):

SUBSTANCE SMILES	pIC50
C=C(CNc1ccc2ncnc(Nc3cccc(Br)c3)c2c1)C(=O)OC	8.90
COC(=O)/C=C/CNc1ccc2ncnc(Nc3cccc(Br)c3)c2c1	7.47

---

Molecular target: His-tagged cytoplasmic domain of EGFR (Homo sapiens, UniProt P00533)
Construct: containing the EGFR cDNA encoding amino acids 645 - 1186 preceded by Met-Ala-(His)6; Met-Ala-(His)6 (N); made in house; host or cells: Sf9 insect cells, recombinant baculovirus vHcEGFR52
Sequence (P00533 669-1210): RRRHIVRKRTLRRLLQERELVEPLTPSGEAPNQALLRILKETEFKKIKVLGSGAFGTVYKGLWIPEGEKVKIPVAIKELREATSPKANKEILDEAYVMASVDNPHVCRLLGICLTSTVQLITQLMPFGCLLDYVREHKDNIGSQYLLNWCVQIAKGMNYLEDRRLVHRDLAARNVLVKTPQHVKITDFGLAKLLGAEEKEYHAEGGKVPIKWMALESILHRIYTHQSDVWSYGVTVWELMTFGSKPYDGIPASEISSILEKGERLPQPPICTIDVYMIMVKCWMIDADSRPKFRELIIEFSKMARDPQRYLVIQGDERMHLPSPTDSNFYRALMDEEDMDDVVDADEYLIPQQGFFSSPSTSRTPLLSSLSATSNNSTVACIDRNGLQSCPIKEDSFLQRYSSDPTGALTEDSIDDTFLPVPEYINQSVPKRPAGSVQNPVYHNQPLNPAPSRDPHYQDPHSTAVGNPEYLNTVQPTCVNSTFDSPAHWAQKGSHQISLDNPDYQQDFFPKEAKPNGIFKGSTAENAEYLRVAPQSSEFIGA
Test: Inhibition of Epidermal Growth Factor Receptor Kinase (EGF-R) using recombinant enzyme, RR-SRC peptide phosphorylation
Assay type: biochemical
Details: recombinant enzyme; average of the number of tests; read-out: IC50
Description: The enzyme used in this assay is the His-tagged cytoplasmic domain of EGFR. […] Sf9 cells in 100 mm plates were infected at an moi of 10 pfu/cell and cells were harvested 48 h post infection. […] For the enzyme reaction, 10 uL of each inhibitor (at various concentrations) were added to each well of a 96-well plate. […] The filter discs were washed 2X with 0.5% phosphoric acid and radioactivity was measured using a liquid scintillation counter.
pIC50: −log10 of the molar value.
Listed here are compounds together with their documented pIC50.

COMPOUND	pIC50
O=C(C#CCCl)Nc1ccc2ncnc(Nc3cccc(Br)c3)c2c1	8.30
O=C(Nc1ccc2ncnc(Nc3cccc(Br)c3)c2c1)C1CO1 (stereo not shown)	9.15
CC(C)(C)[Si](C)(C)OCC#CC(=O)Nc1ccc2ncnc(Nc3cccc(Br)c3)c2c1	8.22
COCCOCC#CC(=O)Nc1ccc2ncnc(Nc3cccc(Br)c3)c2c1	8.70
CNc1c(Nc2ccc3ncnc(Nc4cccc(Br)c4)c3c2)c(=O)c1=O	9.40
COCCN(CC#CC(=O)Nc1ccc2ncnc(Nc3cccc(Br)c3)c2c1)CCOC	8.70
Nc1c(Nc2ccc3ncnc(Nc4cccc(Br)c4)c3c2)c(=O)c1=O	8.15
CCN(CC)CC#CC(=O)Nc1ccc2ncnc(Nc3cccc(Br)c3)c2c1	7.85
CN(C)c1c(Nc2ccc3ncnc(Nc4cccc(Br)c4)c3c2)c(=O)c1=O	7.00
CN1CCN(CC#CC(=O)Nc2ccc3ncnc(Nc4cccc(Br)c4)c3c2)CC1	7.46
O=C(/C=C/Cl)Nc1ccc2ncnc(Nc3cccc(Br)c3)c2c1	9.52
COCOCC#CC(=O)Nc1ccc2ncnc(Nc3cccc(Br)c3)c2c1	8.10
CC#CC(=O)Nc1ccc2ncnc(Nc3cccc(N(C)C)c3)c2c1	7.10
COCCN(C)CC#CC(=O)Nc1ccc2ncnc(Nc3cccc(Br)c3)c2c1	8.35
COCC#CC(=O)Nc1ccc2ncnc(Nc3cccc(Br)c3)c2c1	9.51
CCOc1c(Nc2ccc3ncnc(Nc4cccc(Br)c4)c3c2)c(=O)c1=O	8.70
